Data provenance: PubChem BioAssay (NCI)

# ASSAY_EXPLANATION: NCI Yeast Anticancer Drug Screen. Data for the mec2-1 strain (AID 157)
# EXPERIMENTAL_CONDITIONS: S. cerevisiae mec2-1 strain, at 33.0 µM
Compounds without any hit were thinned out: in the full panel of roughly 79,000, 15% have a hit. Active and inactive are the calls of the source. Cut-off read from the data, not from the text of the source: active = growth inhibition above about 70%; inactive = the rest.
Possible outcomes: True (active), False (inactive)

>>> class_name("O=c1[nH]c2ccc(Cl)cc2o1")
"False"
>>> class_name("CS(=O)(=O)SCc1ccc([N+](=O)[O-])cc1")
"True"
>>> class_name("O=c1c2ccccc2nc(-c2ccccc2)n1O")
"True"
>>> class_name("Cc1ccc(NCCNCCO)c2c(=O)c3cc(O)ccc3sc12")
"False"
>>> class_name("Cc1ccc(S/C(=C\\C(=O)O)c2ccccc2)cc1")
"False"
>>> class_name("COc1ccc(/C=C2\\NC(=S)N(/C=C3\\C(=O)Oc4ccccc4C3=O)C2=O)cc1")
"False"
>>> class_name("CN(C)Cc1cc(N=Nc2ccc(Cl)cc2)ccc1OC(=O)c1ccccc1")
"False"
>>> class_name("O=C1C=C(N2CCN(c3ccccn3)CC2)C(=O)c2c(O)ccc(O)c21")
"False"
>>> class_name("N/C(=N/N=C/c1cc(Br)cc(Br)c1O)NO")
"True"
>>> class_name("CC(=O)SC(C[N+](=O)[O-])c1ccccc1 (configuration not stated)")
"True"
>>> class_name("CN(CCN(C)Cc1ccccc1)Cc1ccccc1")
"False"
>>> class_name("Cc1c(C)c(C)c(CSC(=N)N)c(C)c1C")
"False"
>>> class_name("O=P(NC1CCCCC1)(OCc1ccccc1)OCc1ccccc1")
"False"
>>> class_name("COc1cccc2c1C(=O)c1c(O)c3c(c(O)c1C2=O)CC(O)(C(O)CO)CC3OC1CC(N2CCOCC2)C(O)C(C)O1 (configuration not stated)")
"True"
>>> class_name("CCCCCOC(=S)SC(=O)OCC")
"False"
>>> class_name("Cc1ccc(NC(c2ccccc2)c2ccc3cccnc3c2O)cc1 (configuration not stated)")
"False"
>>> class_name("Cc1cc(C)nc(NS(=O)(=O)c2ccc(Nc3c4ccccc4nc4c(C(=O)NCCO)cccc34)cc2)n1")
"False"
>>> class_name("Cc1cc(N(CCOS(C)(=O)=O)CCOS(C)(=O)=O)ccc1C=Nc1ccc(-c2csc(-c3ccccc3)n2)c(Cl)c1")
"True"
>>> class_name("O=C(NCCCNCCN1C(=O)c2cccc3cc([N+](=O)[O-])cc(c23)C1=O)c1cc(-c2ccccc2)nc2ccccc12")
"False"
>>> class_name("Cc1c2cc[n+](Cc3ccc(I)cc3)cc2c(C)c2c1[nH]c1ccccc12")
"True"
>>> class_name("CN(C)C=NC1CCC(C(C)(C)C)CC1 (configuration not stated)")
"True"
>>> class_name("O=C(NNc1ccccc1)c1ccc(Cl)c(Cl)c1")
"False"
>>> class_name("Cc1nc(Nc2ccccc2[N+](=O)[O-])sc1C(=O)CC(=O)C(=O)Nc1c(C(C)C)cccc1C(C)C")
"False"
>>> class_name("O=[N+]([O-])c1ccc2c(c1)/C(=N/N=C1c3ccccc3Cc3ccccc31)c1cc([N+](=O)[O-])cc([N+](=O)[O-])c1-2")
"True"
>>> class_name("Cc1c(C(C)C)cc(OCCO)cc1C(C)C")
"False"
>>> class_name("CN(C)/C=C/c1nnc([N+](=O)[O-])s1")
"False"
>>> class_name("CN(C)c1ccc(C2CC(C)(O)Oc3cc4c(cc32)OCO4)cc1 (configuration not stated)")
"False"
>>> class_name("OC(CCNCc1ccccc1)c1ccc2ccccc2c1 (configuration not stated)")
"False"
>>> class_name("O=C(CC(=O)n1nc(-c2ccccc2)c(N=Nc2ccc(Cl)cc2)c1-c1ccccc1)Nc1cccc(Cl)c1")
"False"
>>> class_name("CC12C(=O)OC(=O)C(c3ccccc31)c1ccccc12")
"False"
>>> class_name("O=C(O)C1CC(c2ccccc2)=NN1c1ccccc1 (configuration not stated)")
"False"
>>> class_name("CCCCCCN(CCCCCC)CC(O)c1ccnc2ccc(OC)cc12 (configuration not stated)")
"False"
>>> class_name("Cc1cc2c3ccccc3c3ccccc3c2nn1")
"False"
>>> class_name("CCCCCCCCCCCCNC(C)=O")
"False"
>>> class_name("Cc1ccc2c(c1)C1(SC(C)C(=O)N1c1ccc(Cl)cc1)C(=O)N2 (configuration not stated)")
"True"
>>> class_name("CN(C)c1ccc2c(SCC(=O)OCC(=O)[C@@]3(O)CC[C@H]4[C@@H]5CCC6=CC(=O)C=C[C@]6(C)[C@H]5C(=O)C[C@@]43C)c3ccc(N(C)C)cc3nc2c1")
"True"
>>> class_name("O=C(O)Cc1cc(F)ccc1C(=O)O")
"False"
>>> class_name("CNC(=O)OCc1c(COC(=O)NC)c2n(c1C)-c1ccc(OC)cc1CCC2")
"True"
>>> class_name("COc1ccc(C2C3=C(COC3=O)OC(C)(C)Oc3cc4c(cc32)OCO4)cc1OC (configuration not stated)")
"False"
>>> class_name("COc1cc([C@@H]2c3cc4c(cc3[C@@H](Nc3ccc(NC(=O)c5cc([N+](=O)[O-])cn5C)cc3)[C@H]3COC(=O)[C@H]23)OCO4)cc(OC)c1O")
"False"
>>> class_name("Cn1c(-c2ccc(/C=N\\N3CCN(/N=C/c4ccc(-c5c[n+]6ccccc6n5C)cc4)CC3)cc2)c[n+]2ccccc12")
"True"
>>> class_name("CCOC(=O)C1=C(C)NC(C)=C(C(=O)OCCNC(=O)c2ccc(N=[N+]=[N-])cc2)C1c1ccccc1C(F)(F)F (configuration not stated)")
"False"
